These measurements were taken from ChEMBL document CHEMBL1201862.

Test system: OVCAR-3
Assay: NCI tumour cell line growth inhibition, 48 h
Active and inactive are the calls of the source. No stated cut-off is given here; in the data, active = GI50 up to about 1.1 µM and inactive = higher.
Would you mind answering with one of these outcomes? yes (1) = active, no (0) = inactive

Would you please look over these solved cases?
C=CC(C)(O)/C=C/C=C(\C)C(CC1OC1(C)C)OC(=O)/C(C)=C\C (centres undefined)    no (0)
C/C=C(\C)C(=O)OC1C2C(C)C(=O)OC2C(O)C(C)C2C=CC(=O)C21C (centres undefined)    no (0)
C[N+](C)(C)CC(=O)N/N=c1\cc(C(=O)Nc2ccc(N=O)cc2C#N)oc2cc(O)ccc12    no (0)

stdin: Outcome? COc1ccc(C(=O)C(CO)Oc2ccccc2OC)cc1OC (centres undefined)
stdout: no (0)

stdin: Test call, this compound: Nc1nc(N)c(CCCCc2ccccc2)c(/C=C/c2ccc([N+](=O)[O-])cc2)n1
stdout: no (0)

stdin: Please share the test call associated with CC(=O)NC1C(O)C(O)C(CO)OC1n1nc(SCc2ccccc2)c(=O)[nH]c1=O (centres undefined) .
stdout: no (0)

stdin: Write down the call the test reported for this compound. Item: O=C1/C(=C\c2cccc(Oc3ccccc3)c2)SC(c2ccccc2)N1c1ccccc1 (centres undefined)
stdout: no (0)

stdin: Which result was noted for this compound in the test: c1ccc(C[N+]23CN4CN(CN(C4)C2)C3)cc1
stdout: no (0)

stdin: Look up the recorded call for COC1/C=C\C=C(/C)C(=O)NC2=CC(=O)C(N)=C(CC(C)CC(OC)C(O)C(C)C=C(C)C1OC(N)=O)C2=O (centres undefined) in this test.
stdout: yes (1)

stdin: Which result was noted for this compound in the test: COC1/C=C/C(C)C(O)CC(O)/C=C/C(C)C(C(C)C(OC)C(C)CCC(=O)C(C)C(C/C=C/N(C)C=O)OC)OC(=O)/C=C/C=C(\C)CC(OC)CC2=CC(=O)O[C@@H](C(C)C(OC)C1)[C@H]2O (some centres undefined)
stdout: yes (1)

stdin: Which outcome was assigned to Cc1ncc(-c2nnnn2-c2ccccc2)c(C(=O)O)n1 in this test?
stdout: no (0)
